Kindly supply the reported mass density values for the records listed here.
Conditions: 288.15 K; 30000 kPa; Liquid; Vibrating tube method
Numbers after ± are expanded uncertainties.
Please answer using a numeric value trailed by its unit.

Ask | Using known records, supply mass density for CC(C)C(C)C [2,3-dimethylbutane]
Reply | 693.43 ± 0.6 kg/m3

Ask | Using known records, supply mass density for CCC(C)(C)C [2,2-dimethylbutane]
Reply | 683.05 ± 0.61 kg/m3

Ask | Using known records, supply mass density for CCCC(C)C [2-methylpentane]
Reply | 685.21 ± 0.61 kg/m3

Ask | Using known records, supply mass density for CCC(C)CC [3-methylpentane]
Reply | 695.19 ± 0.6 kg/m3

----------
Conditions: 318.15 K; 50000 kPa; Liquid; Vibrating tube method
± gives the expanded uncertainty stated by the source.
METRIC NAME: mass density
Please answer using a numeric value trailed by its unit.

Ask | Using known records, supply mass density for CCCC(C)C
Reply | 679.17 ± 0.87 kg/m3

Ask | Using known records, supply mass density for CCC(C)CC
Reply | 688.56 ± 0.85 kg/m3

Ask | Using known records, supply mass density for CC(C)C(C)C
Reply | 687.47 ± 0.85 kg/m3

Ask | Using known records, supply mass density for CCC(C)(C)C
Reply | 677.73 ± 0.87 kg/m3

----------
Conditions: 328.15 K; 10000 kPa; Liquid; Vibrating tube method
METRIC NAME: mass density (kg/m3)
Answer in kg/m3, number only, no unit symbol.

Ask | Using known records, supply mass density for CCC(C)CC
Reply | 644.64

Ask | Using known records, supply mass density for CCCC(C)C
Reply | 633.86

Ask | Using known records, supply mass density for CC(C)C(C)C
Reply | 642.27

Ask | Using known records, supply mass density for CCC(C)(C)C
Reply | 630.26

----------
Conditions: 288.15 K; 7000 kPa; Liquid; Vibrating tube method
METRIC NAME: mass density (kg/m3)
Answer in kg/m3, number only, no unit symbol.

Ask | Using known records, supply mass density for CCC(C)(C)C
Reply | 661.74

Ask | Using known records, supply mass density for CC(C)C(C)C
Reply | 673.5

Ask | Using known records, supply mass density for CCC(C)CC
Reply | 675.9

Ask | Using known records, supply mass density for CCCC(C)C
Reply | 665.17

----------
Conditions: 328.15 K; 2000 kPa; Liquid; Vibrating tube method
Kindly supply the reported mass density values for the records listed here.
Answer in kg/m3, number only, no unit symbol.

Ask | Using known records, supply mass density for CCC(C)CC
Reply | 634.03

Ask | Using known records, supply mass density for CC(C)C(C)C
Reply | 631.14

Ask | Using known records, supply mass density for CCC(C)(C)C
Reply | 618.2

Ask | Using known records, supply mass density for CCCC(C)C
Reply | 622.75

----------
Kindly supply the reported mass density values for the records listed here.
Details: 298.15 K; 60000 kPa; Liquid; Vibrating tube method
Answer in kg/m3, number only, no unit symbol.

Ask | Using known records, supply mass density for CC(C)C(C)C
Reply | 707.39

Ask | Using known records, supply mass density for CCCC(C)C
Reply | 699.21

Ask | Using known records, supply mass density for CCC(C)CC
Reply | 708.63

Ask | Using known records, supply mass density for CCC(C)(C)C
Reply | 697.88

----------
Details: 308.15 K; 30000 kPa; Liquid; Vibrating tube method
Numbers after ± are expanded uncertainties.
METRIC NAME: mass density
Please answer using a numeric value trailed by its unit.

Ask | Using known records, supply mass density for CCCC(C)C
Reply | 670.38 ± 0.63 kg/m3

Ask | Using known records, supply mass density for CCC(C)CC
Reply | 680.42 ± 0.62 kg/m3

Ask | Using known records, supply mass density for CC(C)C(C)C
Reply | 678.59 ± 0.62 kg/m3

Ask | Using known records, supply mass density for CCC(C)(C)C
Reply | 668.08 ± 0.63 kg/m3

----------
Conditions: 313.15 K; 7000 kPa; Liquid; Vibrating tube method
± gives the expanded uncertainty stated by the source.
METRIC NAME: mass density
Please answer using a numeric value trailed by its unit.

Ask | Using known records, supply mass density for CCC(C)CC [3-methylpentane]
Reply | 654.13 ± 0.37 kg/m3

Ask | Using known records, supply mass density for CCC(C)(C)C [2,2-dimethylbutane]
Reply | 639.66 ± 0.38 kg/m3

Ask | Using known records, supply mass density for CCCC(C)C [2-methylpentane]
Reply | 643.31 ± 0.38 kg/m3

Ask | Using known records, supply mass density for CC(C)C(C)C [2,3-dimethylbutane]
Reply | 651.62 ± 0.37 kg/m3

----------
Details: 298.15 K; 2000 kPa; Liquid; Vibrating tube method
METRIC NAME: mass density (kg/m3)
Answer in kg/m3, number only, no unit symbol.

Ask | Using known records, supply mass density for CCC(C)CC [3-methylpentane]
Reply | 661.91

Ask | Using known records, supply mass density for CCC(C)(C)C [2,2-dimethylbutane]
Reply | 646.95

Ask | Using known records, supply mass density for CC(C)C(C)C [2,3-dimethylbutane]
Reply | 659.21

Ask | Using known records, supply mass density for CCCC(C)C [2-methylpentane]
Reply | 651

----------
Kindly supply the reported mass density values for the records listed here.
Settings: 288.15 K; 20000 kPa; Liquid; Vibrating tube method
Numbers after ± are expanded uncertainties.

Ask | Using known records, supply mass density for CCC(C)CC [3-methylpentane]
Reply | 687.28 ± 0.49 kg/m3

Ask | Using known records, supply mass density for CC(C)C(C)C [2,3-dimethylbutane]
Reply | 685.39 ± 0.49 kg/m3

Ask | Using known records, supply mass density for CCC(C)(C)C [2,2-dimethylbutane]
Reply | 674.51 ± 0.5 kg/m3

Ask | Using known records, supply mass density for CCCC(C)C [2-methylpentane]
Reply | 677.13 ± 0.5 kg/m3

----------
Settings: 318.15 K; 7000 kPa; Liquid; Vibrating tube method
METRIC NAME: mass density (kg/m3)
Answer in kg/m3, number only, no unit symbol.

Ask | Using known records, supply mass density for CCC(C)(C)C [2,2-dimethylbutane]
Reply | 635.14

Ask | Using known records, supply mass density for CC(C)C(C)C [2,3-dimethylbutane]
Reply | 647.3

Ask | Using known records, supply mass density for CCCC(C)C [2-methylpentane]
Reply | 638.86

Ask | Using known records, supply mass density for CCC(C)CC [3-methylpentane]
Reply | 649.71

----------
Settings: 293.15 K; 60000 kPa; Liquid; Vibrating tube method
Numbers after ± are expanded uncertainties.
Kindly supply the reported mass density values for the records listed here.
Please answer using a numeric value trailed by its unit.

Ask | Using known records, supply mass density for CC(C)C(C)C
Reply | 710.4 ± 0.92 kg/m3

Ask | Using known records, supply mass density for CCCC(C)C
Reply | 702.39 ± 0.94 kg/m3

Ask | Using known records, supply mass density for CCC(C)CC
Reply | 711.72 ± 0.91 kg/m3

Ask | Using known records, supply mass density for CCC(C)(C)C
Reply | 701.07 ± 0.94 kg/m3

----------
Conditions: 303.15 K; 50000 kPa; Liquid; Vibrating tube method
METRIC NAME: mass density (kg/m3)
Answer in kg/m3, number only, no unit symbol.

Ask | Using known records, supply mass density for CC(C)C(C)C [2,3-dimethylbutane]
Reply | 697.16

Ask | Using known records, supply mass density for CCC(C)CC [3-methylpentane]
Reply | 698.64

Ask | Using known records, supply mass density for CCC(C)(C)C [2,2-dimethylbutane]
Reply | 687.56

Ask | Using known records, supply mass density for CCCC(C)C [2-methylpentane]
Reply | 689.27

----------
Conditions: 318.15 K; 20000 kPa; Liquid; Vibrating tube method
Numbers after ± are expanded uncertainties.
Kindly supply the reported mass density values for the records listed here.

Ask | Using known records, supply mass density for CCCC(C)C [2-methylpentane]
Reply | 653.46 ± 0.52 kg/m3

Ask | Using known records, supply mass density for CCC(C)(C)C [2,2-dimethylbutane]
Reply | 650.69 ± 0.52 kg/m3

Ask | Using known records, supply mass density for CC(C)C(C)C [2,3-dimethylbutane]
Reply | 661.8 ± 0.51 kg/m3

Ask | Using known records, supply mass density for CCC(C)CC [3-methylpentane]
Reply | 663.74 ± 0.51 kg/m3

----------
Conditions: 298.15 K; 5000 kPa; Liquid; Vibrating tube method
± gives the expanded uncertainty stated by the source.
Kindly supply the reported mass density values for the records listed here.
Please answer using a numeric value trailed by its unit.

Ask | Using known records, supply mass density for CCC(C)CC [3-methylpentane]
Reply | 665.13 ± 0.35 kg/m3

Ask | Using known records, supply mass density for CC(C)C(C)C [2,3-dimethylbutane]
Reply | 662.62 ± 0.35 kg/m3

Ask | Using known records, supply mass density for CCCC(C)C [2-methylpentane]
Reply | 654.32 ± 0.35 kg/m3

Ask | Using known records, supply mass density for CCC(C)(C)C [2,2-dimethylbutane]
Reply | 650.7 ± 0.35 kg/m3
